# credit: paper PMC3561686

What Cmax was measured for each of the following?
Settings: human, in vivo, Cmax, prasugrel alone session; dried blood spots; mean (S.D.)
Record the value in ng/mL, omitting the unit from your answer.

Measured Cmax, Cc1ncc2n1-c1ccc(Cl)cc1C(c1ccccc1F)=NC2 : 0.17

// Cmax lookup, compound = CC(C(=O)O)c1ccc(-c2ccccc2)c(F)c1 (stereo not shown) , result: 1140

Recorded result, CC(NC(C)(C)C)C(=O)c1cccc(Cl)c1 (stereo not shown) , Cmax: 20.9

Record summary for COc1ccc2[nH]c([S+]([O-])Cc3ncc(C)c(OC)c3C)nc2c1 (stereo not shown) : reported Cmax = 35.6
